Quick list: pKd per entry.
target: T1, recombinant human RON SEMA and PSI domains (human, UniProt Q04912 25-571); assay: SPR, purified Ab captured on anti-human IgG Fc, 25 C
T1 construct: domain: SEMA+PSI; Commercial protein (R&D Systems); also called rhRON SEMA+PSI; hRON SEMA+PSI
The meaning of pKd here: minus log10 of the concentration in molar units.

Field: example entries. Status: answers known.
- binder: "Sh07F01-2 (antibody, human IgG1, kappa, V domains shown, also called Chimeric 07F01 C102S) VH: EVKLLESGGGLVQPGGSLKLSCAASGFDFSRHWMSWVRLAPGKGLEWIAEINPDSRTINYTPSLKEKFIISRDNAKNSLFLQMNRVRSEDTALYYCARRVRIHYYGAMDSWGQGTSVTVSS VL: DIVLTQSQKIVSTSVGARVSVTCKASQNVGSSLVWYQQKPGQSPKTLIYSASFRYSGVPDRFTGSGSGTDFTLTISNVQSEDLADYFCQQYNNYPLTFGAGTKLELKR"
  pKd: 10.09
- binder: "Sh29B06-23 (antibody, human IgG1, kappa, V domains shown, Humanized, human IgG1/kappa: Hu29B06 Hv4-59 IgG1 (CDR graft with back mutations) + Sh29B06 Kv2-28 Kappa) VH: QVQLQESGPGLVKPSETLSLTCTVSGDSITSGYWNWIRKPPGKKLEYMGYISYSGKTYYNPSLKSRITISRDTSKNQYSLKLSSVTAADTAVYYCARSKYDYAMDYWGQGTLVTVSS VL: DIVMTQSPLSLPVTPGEPASISCRASEIVDNFGISFMNWYLQKPGQSPQLLIYAASNQGSGVPDRFSGSGSGTDFTLKISRVEAEDVGVYYCQQSKEVPPTFGGGTKVEIKR"
  pKd: 9.85
- binder: "Sh07F01-69 (antibody, human IgG1, kappa, V domains shown, Humanized, human IgG1/kappa: Sh07F01 Hv3-48 IgG1 + Sh07F01 Kv1-9 F1 Kappa) VH: EVQLVESGGGLVQPGGSLRLSCAASGFDFSRHWMSWVRQAPGKGLEWVSEINPDSRTINYTPSLKERFTISRDNAKNSLYLQMNSLRAEDTAVYYCARRVRIHYYGAMDSWGQGTTVTVSS VL: DIQLTQSPSFLSASVGDRVTITCRASQNVGSSLVWYQQKPGKAPKTLIYSASFLYSGVPSRFSGSGSGTEFTLTISSLQPEDFATYYCQQYNNYPLTFGGGTKVEIKR"
  pKd: 9.92

Exam item: For the binder shown here, Sh07F01-43 (antibody, human IgG1, kappa, V domains shown, Humanized, human IgG1/kappa: Sh07F01 Hv3-48 IgG1 + HE L 07F01 Kv1-9 Kappa) VH: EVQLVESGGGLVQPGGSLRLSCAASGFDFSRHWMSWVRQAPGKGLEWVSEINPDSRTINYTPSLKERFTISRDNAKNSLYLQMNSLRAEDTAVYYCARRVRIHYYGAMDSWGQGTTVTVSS VL: DIQLTQSQSFVSTSVGDRVTVTCRASQNVGSSLVWYQQKPGKSPKTLIYSASFLYSGVPSRFSGSGSGTEFTLTISSVQPEDFADYFCQQYNNYPLTFGGGTKVEIKR , give the reported pKd.
Marked response: 10.05

Exam item: For the binder shown here, Sh07F01-83 (antibody, human IgG1, kappa, V domains shown, Humanized, human IgG1/kappa: Sh07F01 Hv3-48 D28T T60A L63V E65G IgG1 + Sh07F01 Kv1-9 F1 Kappa) VH: EVQLVESGGGLVQPGGSLRLSCAASGFTFSRHWMSWVRQAPGKGLEWVSEINPDSRTINYAPSVKGRFTISRDNAKNSLYLQMNSLRAEDTAVYYCARRVRIHYYGAMDSWGQGTTVTVSS VL: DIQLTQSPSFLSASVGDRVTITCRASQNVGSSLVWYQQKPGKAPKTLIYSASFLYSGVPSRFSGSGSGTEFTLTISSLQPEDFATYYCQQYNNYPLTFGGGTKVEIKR , give the reported pKd.
Marked response: 9.96

Exam item: For the binder shown here, Sh29B06-78 (antibody, human IgG1, kappa, V domains shown, Humanized, human IgG1/kappa: Hu29B06 Hv4-59 D27G T30S M48I I67V Y78F IgG1 + Sh29B06 Kv2-28 Kappa) VH: QVQLQESGPGLVKPSETLSLTCTVSGGSISSGYWNWIRKPPGKKLEYIGYISYSGKTYYNPSLKSRVTISRDTSKNQFSLKLSSVTAADTAVYYCARSKYDYAMDYWGQGTLVTVSS VL: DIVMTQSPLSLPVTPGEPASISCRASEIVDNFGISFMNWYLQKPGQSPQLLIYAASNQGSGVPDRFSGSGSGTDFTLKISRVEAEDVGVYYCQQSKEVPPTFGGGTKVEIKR , give the reported pKd.
Marked response: 10.28

Exam item: For the binder shown here, Sh07F01-62 (antibody, human IgG1, kappa, V domains shown, Humanized, human IgG1/kappa: Sh07F01 Hv3-48 D28T T60A L63V E65G IgG1 + HE L 07F01 Kv1-9 Kappa) VH: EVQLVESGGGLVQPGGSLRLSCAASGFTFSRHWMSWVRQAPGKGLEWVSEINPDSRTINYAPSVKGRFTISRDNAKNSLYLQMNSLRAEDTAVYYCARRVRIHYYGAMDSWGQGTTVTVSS VL: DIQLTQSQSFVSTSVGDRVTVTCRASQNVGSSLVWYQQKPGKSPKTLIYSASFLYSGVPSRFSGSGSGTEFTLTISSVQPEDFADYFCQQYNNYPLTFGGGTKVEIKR , give the reported pKd.
Marked response: 10.07

Data origin: patent US20120027773A1
